Target: T1, human serum albumin (human, UniProt P02768 25-609)
T1 construct: Bought protein, immobilized on a CM5 chip by amine coupling; also called Human SA
Test: SPR (Biacore 8K), albumin immobilized on CM5 chip, 25 C, 1:1 kinetic fit

# binder, Kd, nM
data = [
    ("RLN Analog 12 (other, Single-chain fusion: VHH - (G4Q)5 L1 - RLN2 B chain (desB1) - L2 of thirteen residues - RLN2 A chain (desA1-4)) EVQLLESGGGLVQPGGSLRLSCAASGRYIDETAVAWFRQAPGKGREFVAGIGGGVDITYYADSVKGRFTISRDNSKNTLYLQMNSLRPEDTAVYYCAARPGRPLITSKVADLYPYWGQGTLVTVSSGGGGQGGGGQGGGGQGGGGQGGGGQSWMEEVIKLCGRELVRAQIAICGMSTWSGGGSGGSGGSGGGALANKCCHVGCTKRSLARFC", 0.14),
    ("RLN Analog 4 (other, Single-chain fusion: VHH - (PGPQ)8 L1 - RLN2 B chain (desB1) - L2 - RLN2 A chain) EVQLLESGGGLVQPGGSLRLSCAASGRYIDETAVAWFRQAPGKEREFVAGIGGGVDITYYADSVKGRFTISRDNSKNTLYLQMNSLRPEDTAVYYCAARPGRPLITSKVADLYPYWGQGTLVTVSSPGPQPGPQPGPQPGPQPGPQPGPQPGPQPGPQSWMEEVIKLCGRELVRAQIAICGMSTWSGGGSGGSGGGQLYSALANKCCHVGCTKRSLARFC", 0.089),
    ("RLN Analog 11 (other, Single-chain fusion: VHH - (G4Q)5 L1 - RLN2 B chain (desB1) - L2 of thirteen residues - RLN2 A chain (desA1-4)) EVQLLESGGGLVQPGGSLRLSCAASGRYIDETAVAWFRQAPGKEREFVAGIGGGVDITYYADSVKGRFTISRDNSKNTLYLQMNSLRPEDTAVYYCAARPGRPLITSKVADLYPYWGQGTLVTVSSGGGGQGGGGQGGGGQGGGGQGGGGQSWMEEVIKLCGRELVRAQIAICGMSTWSGGGSGGSGGSGGGALANKCCHVGCTKRSLARFC", 0.17),
]
